Entries annotated with measured CDK2 % Inhibition At 0.03 μM
biological target: CDK2/Cyclin A (Homo sapiens, UniProt P24941); assay: Inhibition of CDK2/Cyclin A Retinoblastoma Kinase Activity; format: biochemical; details: 0.03 μM compound; Table 2

Compound: CCNC(=O)N1CCC(Nc2nc(N)c(C(=O)c3c(F)cccc3F)s2)CC1
Unit Label: %
CDK2 % Inhibition At 0.03 μM: 33
//
Compound: Nc1nc(NC2CCN(C(=O)Nc3ccccc3C(F)(F)F)CC2)sc1C(=O)c1c(F)cccc1F
Unit Label: %
CDK2 % Inhibition At 0.03 μM: 28
//
Compound: Nc1nc(NC2CCN(C(=O)Nc3cccnc3)CC2)sc1C(=O)c1c(F)cccc1F
Unit Label: %
CDK2 % Inhibition At 0.03 μM: 32
//
Compound: COC(=O)[C@H](Cc1ccccc1)NC(=O)N1CCC(Nc2nc(N)c(C(=O)c3c(F)cccc3F)s2)CC1
Unit Label: %
CDK2 % Inhibition At 0.03 μM: 25
//
Compound: CC(=O)c1ccc(NC(=O)N2CCC(Nc3nc(N)c(C(=O)c4c(F)cccc4F)s3)CC2)cc1
Unit Label: %
CDK2 % Inhibition At 0.03 μM: 30
//
Compound: CCOC(=O)CCNC(=O)N1CCC(Nc2nc(N)c(C(=O)c3c(F)cccc3F)s2)CC1
Unit Label: %
CDK2 % Inhibition At 0.03 μM: 29
//
Compound: COc1cccc(NC(=O)N2CCC(Nc3nc(N)c(C(=O)c4c(F)cccc4F)s3)CC2)c1
Unit Label: %
CDK2 % Inhibition At 0.03 μM: 36
//
Compound: Nc1nc(NC2CCN(C(=O)Nc3cccc4ccccc34)CC2)sc1C(=O)c1c(F)cccc1F
Unit Label: %
CDK2 % Inhibition At 0.03 μM: 29
//
Compound: CCOC(=O)C(CCSC)NC(=O)N1CCC(Nc2nc(N)c(C(=O)c3c(F)cccc3F)s2)CC1 (centres unmarked)
Unit Label: %
CDK2 % Inhibition At 0.03 μM: 30
//
Compound: COC(=O)[C@@H](NC(=O)N1CCC(Nc2nc(N)c(C(=O)c3c(F)cccc3F)s2)CC1)C(C)C
Unit Label: %
CDK2 % Inhibition At 0.03 μM: 22
//
Compound: Nc1nc(NC2CCN(C(=O)Nc3ccc(Oc4ccccc4)cc3)CC2)sc1C(=O)c1c(F)cccc1F
Unit Label: %
CDK2 % Inhibition At 0.03 μM: 24
//
Compound: CC(C)(C)NC(=O)N1CCC(Nc2nc(N)c(C(=O)c3c(F)cccc3F)s2)CC1
Unit Label: %
CDK2 % Inhibition At 0.03 μM: 38
//
Compound: Nc1nc(NC2CCN(C(=O)Nc3cc(C(F)(F)F)ccc3F)CC2)sc1C(=O)c1c(F)cccc1F
Unit Label: %
CDK2 % Inhibition At 0.03 μM: 34
//
Compound: Cc1ccc(NC(=O)N2CCC(Nc3nc(N)c(C(=O)c4c(F)cccc4F)s3)CC2)cc1C
Unit Label: %
CDK2 % Inhibition At 0.03 μM: 28
//
Compound: COc1ccccc1NC(=O)N1CCC(Nc2nc(N)c(C(=O)c3c(F)cccc3F)s2)CC1
Unit Label: %
CDK2 % Inhibition At 0.03 μM: 40
//
Compound: CCCc1ccccc1NC(=O)N1CCC(Nc2nc(N)c(C(=O)c3c(F)cccc3F)s2)CC1
Unit Label: %
CDK2 % Inhibition At 0.03 μM: 25
//
Compound: CCCCCCCOc1ccc(NC(=O)N2CCC(Nc3nc(N)c(C(=O)c4c(F)cccc4F)s3)CC2)cc1
Unit Label: %
CDK2 % Inhibition At 0.03 μM: 29
